Provenance of the data: ChEMBL document CHEMBL3621115

Biological target: Cyclin-dependent kinase 2 (Homo sapiens)
Assay: Inhibition of human recombinant CDK2
quantityMeasured: IC50

Record CN(C)CCCNC(=O)c1csc2nc(-c3ccc(NC(=O)Nc4cc(C(C)(C)C)on4)cc3)cn12 , field IC50: > 10 µM

* * *

Test system: HepG2
Test: Cytotoxicity against human HepG2 cells assessed as cell viability after 72 hrs by MTT assay
Assay type: functional, cell-based
Details: HepG2, 72 h
quantityMeasured: IC50 (µM)
One number for each entry, in µM.

// assay HepG2, entry CN(C)CCCNC(=O)c1csc2nc(-c3ccc(NC(=O)Nc4cc(C(C)(C)C)on4)cc3)cn12 , IC50 value = 10

* * *

Biological target: Tyrosine-protein kinase Lck (Homo sapiens, UniProt P06239)
Sequence (P06239 whole entry): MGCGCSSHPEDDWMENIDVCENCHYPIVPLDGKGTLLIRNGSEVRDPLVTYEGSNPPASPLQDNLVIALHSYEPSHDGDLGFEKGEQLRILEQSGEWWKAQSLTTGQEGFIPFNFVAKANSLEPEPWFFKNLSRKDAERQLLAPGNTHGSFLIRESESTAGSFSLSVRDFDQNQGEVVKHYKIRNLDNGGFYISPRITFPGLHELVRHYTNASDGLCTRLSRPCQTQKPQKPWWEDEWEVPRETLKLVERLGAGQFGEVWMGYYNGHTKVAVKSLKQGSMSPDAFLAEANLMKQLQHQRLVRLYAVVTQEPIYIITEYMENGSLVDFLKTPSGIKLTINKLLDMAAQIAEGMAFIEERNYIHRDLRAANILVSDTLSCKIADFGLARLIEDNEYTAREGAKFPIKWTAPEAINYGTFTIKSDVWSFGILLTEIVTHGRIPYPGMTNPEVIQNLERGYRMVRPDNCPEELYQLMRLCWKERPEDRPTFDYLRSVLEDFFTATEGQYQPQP
Assay: Inhibition of human recombinant Lck
quantityMeasured: IC50

The compound identified as CN(C)CCCNC(=O)c1csc2nc(-c3ccc(NC(=O)Nc4cc(C(C)(C)C)on4)cc3)cn12 registered its IC50 at > 10 µM

* * *

Molecular target: Serine/threonine-protein kinase D1 (Homo sapiens, UniProt Q15139)
Sequence (Q15139 whole entry): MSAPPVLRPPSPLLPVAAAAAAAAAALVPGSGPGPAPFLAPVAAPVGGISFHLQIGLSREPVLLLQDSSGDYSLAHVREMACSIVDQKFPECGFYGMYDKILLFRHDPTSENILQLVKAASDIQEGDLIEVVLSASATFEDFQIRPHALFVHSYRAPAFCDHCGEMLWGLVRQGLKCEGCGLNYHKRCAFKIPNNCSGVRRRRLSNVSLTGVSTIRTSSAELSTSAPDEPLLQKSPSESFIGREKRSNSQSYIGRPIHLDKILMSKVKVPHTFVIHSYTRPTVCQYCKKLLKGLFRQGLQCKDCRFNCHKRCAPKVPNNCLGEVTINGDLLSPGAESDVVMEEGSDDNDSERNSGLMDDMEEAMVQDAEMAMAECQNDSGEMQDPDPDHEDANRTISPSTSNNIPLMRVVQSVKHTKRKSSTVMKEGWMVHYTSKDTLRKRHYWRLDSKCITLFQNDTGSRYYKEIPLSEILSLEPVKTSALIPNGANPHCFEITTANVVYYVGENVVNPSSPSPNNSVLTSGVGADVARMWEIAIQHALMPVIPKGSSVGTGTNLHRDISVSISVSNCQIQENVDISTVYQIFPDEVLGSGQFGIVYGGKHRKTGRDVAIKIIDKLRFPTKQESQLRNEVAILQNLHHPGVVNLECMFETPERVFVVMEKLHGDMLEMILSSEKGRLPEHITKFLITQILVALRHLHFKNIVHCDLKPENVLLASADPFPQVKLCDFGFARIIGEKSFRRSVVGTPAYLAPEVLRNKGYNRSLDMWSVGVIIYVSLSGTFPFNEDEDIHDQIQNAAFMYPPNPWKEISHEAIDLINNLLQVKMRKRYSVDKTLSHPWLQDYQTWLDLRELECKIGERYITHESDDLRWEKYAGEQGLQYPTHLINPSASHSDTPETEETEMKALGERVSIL
Assay: Inhibition of human recombinant PKCmu
pIC50: −log10 of the molar value.
quantityMeasured: pIC50

Item: CN(C)CCCNC(=O)c1csc2nc(-c3ccc(NC(=O)Nc4cc(C(C)(C)C)on4)cc3)cn12 | pIC50: < 5.00

* * *

Biological target: Tyrosine-protein kinase SYK (Homo sapiens, UniProt P43405)
Assay: Inhibition of human recombinant Syk
quantityMeasured: IC50

Reported IC50 ( CN(C)CCCNC(=O)c1csc2nc(-c3ccc(NC(=O)Nc4cc(C(C)(C)C)on4)cc3)cn12 ) = > 10 µM

* * *

Target: UniProt:Q15303
Sequence (Q15303 whole entry): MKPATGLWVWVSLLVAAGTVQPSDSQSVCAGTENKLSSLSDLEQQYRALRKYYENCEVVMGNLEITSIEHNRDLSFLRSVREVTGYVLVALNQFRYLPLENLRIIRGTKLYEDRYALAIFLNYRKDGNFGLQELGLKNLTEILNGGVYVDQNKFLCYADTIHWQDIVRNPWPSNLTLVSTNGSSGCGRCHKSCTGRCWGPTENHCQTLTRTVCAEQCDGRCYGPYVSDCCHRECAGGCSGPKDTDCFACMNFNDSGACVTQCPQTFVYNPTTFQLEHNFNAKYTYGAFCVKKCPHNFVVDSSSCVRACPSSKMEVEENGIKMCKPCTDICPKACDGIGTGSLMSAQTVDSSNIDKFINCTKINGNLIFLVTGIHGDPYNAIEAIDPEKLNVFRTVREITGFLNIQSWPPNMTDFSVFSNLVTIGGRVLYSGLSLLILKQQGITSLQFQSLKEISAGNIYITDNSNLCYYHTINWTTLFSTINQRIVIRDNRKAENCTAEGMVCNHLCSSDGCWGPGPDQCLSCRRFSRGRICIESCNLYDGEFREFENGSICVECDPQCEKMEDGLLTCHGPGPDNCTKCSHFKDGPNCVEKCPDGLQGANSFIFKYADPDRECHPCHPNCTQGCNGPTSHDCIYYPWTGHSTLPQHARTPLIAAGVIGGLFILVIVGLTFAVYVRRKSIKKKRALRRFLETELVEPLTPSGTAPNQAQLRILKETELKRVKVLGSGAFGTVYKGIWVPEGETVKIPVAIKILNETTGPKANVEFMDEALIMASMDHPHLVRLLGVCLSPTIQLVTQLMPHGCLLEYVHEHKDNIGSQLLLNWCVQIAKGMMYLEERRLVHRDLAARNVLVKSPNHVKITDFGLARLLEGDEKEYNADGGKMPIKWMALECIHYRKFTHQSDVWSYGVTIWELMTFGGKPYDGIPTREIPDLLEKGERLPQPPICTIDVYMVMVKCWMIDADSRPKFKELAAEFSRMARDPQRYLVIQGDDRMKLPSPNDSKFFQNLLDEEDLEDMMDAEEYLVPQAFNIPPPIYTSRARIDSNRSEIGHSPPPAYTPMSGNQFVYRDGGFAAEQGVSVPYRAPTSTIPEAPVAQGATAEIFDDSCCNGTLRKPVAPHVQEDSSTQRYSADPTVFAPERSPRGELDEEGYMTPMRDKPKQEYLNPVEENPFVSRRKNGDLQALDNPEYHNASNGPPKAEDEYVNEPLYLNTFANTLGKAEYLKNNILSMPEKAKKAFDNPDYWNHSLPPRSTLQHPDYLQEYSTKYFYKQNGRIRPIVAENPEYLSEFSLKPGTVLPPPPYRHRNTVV
Experiment: Inhibition of human recombinant ErbB4
quantityMeasured: IC50

Bench note, UniProt:Q15303: CN(C)CCCNC(=O)c1csc2nc(-c3ccc(NC(=O)Nc4cc(C(C)(C)C)on4)cc3)cn12 , IC50 reads > 10 µM

* * *

Biological target: 5'-AMP-activated protein kinase catalytic subunit alpha-1 (Homo sapiens, UniProt Q13131)
Sequence (Q13131 whole entry): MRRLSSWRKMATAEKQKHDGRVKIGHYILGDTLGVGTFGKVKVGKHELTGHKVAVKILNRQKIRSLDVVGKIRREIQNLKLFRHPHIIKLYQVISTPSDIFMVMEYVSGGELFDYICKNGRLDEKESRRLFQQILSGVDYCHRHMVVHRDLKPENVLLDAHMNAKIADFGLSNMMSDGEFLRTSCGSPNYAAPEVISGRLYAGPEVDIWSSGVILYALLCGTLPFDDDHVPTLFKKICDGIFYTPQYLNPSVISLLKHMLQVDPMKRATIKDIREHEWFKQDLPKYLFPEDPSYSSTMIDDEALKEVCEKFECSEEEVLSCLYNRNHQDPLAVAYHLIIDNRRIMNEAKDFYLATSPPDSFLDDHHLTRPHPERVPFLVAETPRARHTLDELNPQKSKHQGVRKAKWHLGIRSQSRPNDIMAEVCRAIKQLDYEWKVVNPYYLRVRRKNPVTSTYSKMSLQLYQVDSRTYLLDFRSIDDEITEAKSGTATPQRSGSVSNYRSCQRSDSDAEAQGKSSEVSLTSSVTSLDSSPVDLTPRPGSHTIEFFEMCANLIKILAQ
Experiment: Inhibition of human recombinant AMPKalpha1
quantityMeasured: IC50

Considering CN(C)CCCNC(=O)c1csc2nc(-c3ccc(NC(=O)Nc4cc(C(C)(C)C)on4)cc3)cn12 , its IC50 with 5'-AMP-activated protein kinase catalytic subunit alpha-1 (Homo sapiens, UniProt Q13131) was recorded as > 10 µM

* * *

Molecular target: Tyrosine-protein kinase Fyn (Homo sapiens, UniProt P06241)
Sequence (P06241 whole entry): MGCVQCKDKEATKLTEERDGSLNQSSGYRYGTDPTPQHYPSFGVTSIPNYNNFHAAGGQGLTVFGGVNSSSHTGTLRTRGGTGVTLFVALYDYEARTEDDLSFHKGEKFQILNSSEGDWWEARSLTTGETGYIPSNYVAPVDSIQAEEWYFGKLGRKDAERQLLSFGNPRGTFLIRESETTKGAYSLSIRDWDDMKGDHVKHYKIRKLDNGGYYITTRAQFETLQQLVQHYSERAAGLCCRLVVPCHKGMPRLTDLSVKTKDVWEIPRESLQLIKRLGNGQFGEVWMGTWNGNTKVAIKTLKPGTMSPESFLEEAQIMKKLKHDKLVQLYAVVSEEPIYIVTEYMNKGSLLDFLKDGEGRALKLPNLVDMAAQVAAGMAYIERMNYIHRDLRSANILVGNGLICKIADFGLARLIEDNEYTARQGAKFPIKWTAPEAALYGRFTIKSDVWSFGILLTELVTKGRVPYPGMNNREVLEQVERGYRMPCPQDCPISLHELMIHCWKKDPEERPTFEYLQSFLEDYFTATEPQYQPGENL
Experiment: Inhibition of human recombinant Fyn
quantityMeasured: IC50

Per the reported Tyrosine-protein kinase Fyn (Homo sapiens, UniProt P06241) data, CN(C)CCCNC(=O)c1csc2nc(-c3ccc(NC(=O)Nc4cc(C(C)(C)C)on4)cc3)cn12 has IC50 of > 10 µM

* * *

Target: Tyrosine-protein kinase BTK (Homo sapiens, UniProt Q06187)
Sequence (Q06187 whole entry): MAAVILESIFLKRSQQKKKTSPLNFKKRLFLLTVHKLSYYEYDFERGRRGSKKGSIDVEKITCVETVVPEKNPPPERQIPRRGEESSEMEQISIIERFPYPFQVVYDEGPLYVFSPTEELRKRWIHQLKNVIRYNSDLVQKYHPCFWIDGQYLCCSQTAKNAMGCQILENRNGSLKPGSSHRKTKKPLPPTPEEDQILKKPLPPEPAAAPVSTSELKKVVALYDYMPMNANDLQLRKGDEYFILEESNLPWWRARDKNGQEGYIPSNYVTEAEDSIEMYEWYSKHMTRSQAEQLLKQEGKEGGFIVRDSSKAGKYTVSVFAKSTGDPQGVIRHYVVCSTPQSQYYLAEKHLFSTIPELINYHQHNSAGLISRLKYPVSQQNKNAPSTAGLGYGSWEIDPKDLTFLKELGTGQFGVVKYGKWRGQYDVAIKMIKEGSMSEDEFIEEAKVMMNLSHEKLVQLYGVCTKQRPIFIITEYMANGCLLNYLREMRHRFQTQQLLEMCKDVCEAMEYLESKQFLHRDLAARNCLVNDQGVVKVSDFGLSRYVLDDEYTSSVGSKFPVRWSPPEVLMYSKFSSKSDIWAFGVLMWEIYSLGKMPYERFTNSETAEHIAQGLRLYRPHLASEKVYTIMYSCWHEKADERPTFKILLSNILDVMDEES
Assay: Inhibition of human recombinant BTK
pIC50: −log10 of the molar value.
quantityMeasured: pIC50

Quick note, pIC50 for CN(C)CCCNC(=O)c1csc2nc(-c3ccc(NC(=O)Nc4cc(C(C)(C)C)on4)cc3)cn12 landed at < 5.00

* * *

System: CWR22R
Experiment: Cytotoxicity against human 22Rv1 cells assessed as cell viability after 72 hrs by MTT assay
Format: functional, cell-based
Conditions: 22Rv1, 72 h
quantityMeasured: IC50

get_value(item= CN(C)CCCNC(=O)c1csc2nc(-c3ccc(NC(=O)Nc4cc(C(C)(C)C)on4)cc3)cn12 , readout=IC50) returns > 10 µM
